# System: VchCAST RNA-guided transposition machinery (E. coli BL21(DE3) host, lacZ target)
# method-notes: relative integration efficiency (T-LR orientation) vs wild-type transposon end (log2 (normalized fold change)); transposon end mutated: right end (5 bp flank + 75 bp right end); higher = more efficient transposition
reported-property: relative integration efficiency (log2)
The reply should be a number, written without any unit.

Would you please look over these solved cases?
ordered_residues=ACATTTGTTGATACAACCATTAAATGCTAATTCCACCCATAAATTGATAATTATCACACCCAATTTAACTATAACGCTCTGATCATAGTCAGACCAACATTGCTACGACCCGTATTCGCACCGACAC reading=2.09
ordered_residues=ACATTTGTTGATACAACCAATAAATGATAATTACACCCATAAATTGATAATAATGACACCGAATTTAACTATAACGCTCTGATCATAGTCAGACCAACATTGCTACGACCCGTATTCGCACCGACAC reading=2.08
ordered_residues=ACATTTGTTGATACAACCATAAAATGATAATTACACCCATAAATTGATAATAATGACACCGAATTTAACTATAACGCTCTGATCATAGTCAGACCAACATTGCTACGACCCGTATTCGCACCGACAC reading=5.35
ordered_residues=ACATTTGTTGATACAACCATAAAATGATAATTACACCCATAAATTGATAATTATCAACACCCATAAATTGATATTGCCTCTGATCATAGTCAGACCAACATTGCTACGACCCGTATTCGCACCGACA reading=0.619
ordered_residues=ACATTTGTTGATACAACCATAAAATGATAATTACACCCATAAATTGATAATTATCACACCCATAAATTGATATTGCCGAGGATCATAGTCAGACCAACATTGCTACGACCCGTATTCGCACCGACAC reading=0.294
ordered_residues=ACATTTGTTGATACAACCATTAAATGGTAATTACACCCATAAATTGATAATTATCACACCCAATTTAACTATAACGCTCTGATCATAGTCAGACCAACATTGCTACGACCCGTATTCGCACCGACAC reading=1.67

Q: Please state recorded relative integration efficiency (log2) (tested on VchCAST RNA-guided transposition machinery (E. coli BL21(DE3) host, lacZ target)) of "ACATTTGTTGATACACCCATAAATTGATAATTACACCCATAAATTGATAATTATCACAACCATAAAATGATAATTACTCTGATCATAGTCAGACCAACATTGCTACGACCCGTATTCGCACCGACAC"
A: -0.749

Q: Please state recorded relative integration efficiency (log2) (tested on VchCAST RNA-guided transposition machinery (E. coli BL21(DE3) host, lacZ target)) of "ACATTTGTCGATACAACCATAAAATGATAATTACACCCATAAATGGATAATTATCACACCCAATTTAACTATAACGCTCTGATCATAGTCAGACCAACATTGCTACGACCCGTATTCGCACCGACAC"
A: 1.69

Q: Please state recorded relative integration efficiency (log2) (tested on VchCAST RNA-guided transposition machinery (E. coli BL21(DE3) host, lacZ target)) of "ACATTTGTGGATACAACCCTAAAATGATAATTACACCCATAAATTGATCATTATCACCCCCAATTTAACTATAACGCTCTGATCATAGTCAGACCAACATTGCTACGACCCGTATTCGCACCGACAC"
A: 0.316

Q: Please state recorded relative integration efficiency (log2) (tested on VchCAST RNA-guided transposition machinery (E. coli BL21(DE3) host, lacZ target)) of "ACATTTGTTGATACAACCATAAAATGATAATTACTCTGATCATAGTCAGACCAACATTGCTACGACCCGTATTCGCACCGACACAACGCACCCATAAATTGATAATTATCAGTGGGTATTTAACTAT"
A: 1.8
